test_context: bacteroides fragilis, 12 h, 2 µM
Description: The drug is tested on Bacteroides fragilis strain: NCTC 9343 for biotransformation. The drug concentrations were measured before and after a 12-h incubation by liquid-chromatography-coupled mass spectrometry (LC–MS)
value_type: Bacterial Biotransformation

molecule	value_type	test_result
Cc1nc2n(c(=O)c1CCN1CCC(c3noc4cc(F)ccc34)CC1)CCCC2 [RISPERIDONE]	Bacterial Biotransformation	Compound NOT metabolized
CCOC(=O)[C@H](CCc1ccccc1)N[C@@H](C)C(=O)N1[C@H](C(=O)O)C[C@H]2CCCC[C@@H]21 [TRANDOLAPRIL]	Bacterial Biotransformation	Compound metabolized
CN1[C@@H]2CC[C@H]1C[C@@H](OC(=O)C(CO)c1ccccc1)C2 (some centres undefined) [ATROPINE]	Bacterial Biotransformation	Compound NOT metabolized
CN(C)C(=O)Oc1cccc([N+](C)(C)C)c1.[Br-] [NEOSTIGMINE BROMIDE]	Bacterial Biotransformation	Compound metabolized

###

test_context: limosilactobacillus reuteri cf48-3a, 12 h, 2 µM
Description: The drug is tested on Lactobacillus reuteri CF48-3A strain: BEI HM-102 for biotransformation. The drug concentrations were measured before and after a 12-h incubation by liquid-chromatography-coupled mass spectrometry (LC–MS)
value_type: Bacterial Biotransformation

compound	value_type	test_result
CCN(CC)CCNC(C(=O)OCCC(C)C)c1ccccc1.Cl.Cl (stereo not drawn)	Bacterial Biotransformation	Compound NOT metabolized
CC(O)(CS(=O)(=O)c1ccc(F)cc1)C(=O)Nc1ccc(C#N)c(C(F)(F)F)c1 (stereo not drawn) [BICALUTAMIDE]	Bacterial Biotransformation	Compound NOT metabolized
CC(=O)OCC(=O)[C@@]1(OC(C)=O)[C@@H](C)C[C@H]2[C@@H]3C[C@H](F)C4=CC(=O)C=C[C@]4(C)[C@@]3(F)[C@@H](O)C[C@@]21C [DIFLORASONE DIACETATE]	Bacterial Biotransformation	Compound NOT metabolized
CN(C)C(=O)C(CCN1CCC(O)(c2ccc(Cl)cc2)CC1)(c1ccccc1)c1ccccc1 [LOPERAMIDE]	Bacterial Biotransformation	Compound NOT metabolized
COc1ccc(CN2CCNCC2)c(OC)c1OC.Cl.Cl [TRIMETAZIDINE DIHYDROCHLORIDE]	Bacterial Biotransformation	Compound NOT metabolized
C[C@@H](c1ncncc1F)[C@](O)(Cn1cncn1)c1ccc(F)cc1F	Bacterial Biotransformation	Compound NOT metabolized
COc1ccc2c(c1)c(CC(=O)O)c(C)n2C(=O)c1ccc(Cl)cc1	Bacterial Biotransformation	Compound metabolized
CCCCC1=NC2(CCCC2)C(=O)N1Cc1ccc(-c2ccccc2-c2nnn[nH]2)cc1	Bacterial Biotransformation	Compound metabolized
CC(CN1c2ccccc2Sc2ccccc21)N(C)C (stereo not drawn)	Bacterial Biotransformation	Compound NOT metabolized
CNCC[C@H](Oc1cccc2ccccc12)c1cccs1	Bacterial Biotransformation	Compound NOT metabolized
O=C1N=C([O-])NC1(c1ccccc1)c1ccccc1.[Na+] [PHENYTOIN SODIUM]	Bacterial Biotransformation	Compound NOT metabolized
C[C@]12C=CC(=O)C=C1CC[C@@H]1[C@@H]2C(=O)C[C@@]2(C)[C@H]1CC[C@]2(O)C(=O)CO	Bacterial Biotransformation	Compound NOT metabolized
OC(CCN1CCCCC1)(c1ccccc1)C1CC2C=CC1C2 (stereo not drawn)	Bacterial Biotransformation	Compound NOT metabolized
CN[C@H]1CC[C@@H](c2ccc(Cl)c(Cl)c2)c2ccccc21	Bacterial Biotransformation	Compound NOT metabolized
Nc1nnc(-c2cccc(Cl)c2Cl)c(N)n1	Bacterial Biotransformation	Compound NOT metabolized
c1ccc2[nH]c(-c3cscn3)nc2c1	Bacterial Biotransformation	Compound NOT metabolized
Cc1nc(Nc2ncc(C(=O)Nc3c(C)cccc3Cl)s2)cc(N2CCN(CCO)CC2)n1.O	Bacterial Biotransformation	Compound metabolized
CCOC(=O)C1=C(C)NC(C)=C(C(=O)OC)C1c1cccc([N+](=O)[O-])c1 (stereo not drawn)	Bacterial Biotransformation	Compound metabolized
CC#C[C@]1(O)CC[C@H]2[C@@H]3CCC4=CC(=O)CCC4=C3[C@@H](c3ccc(N(C)C)cc3)C[C@@]21C	Bacterial Biotransformation	Compound NOT metabolized
CN1CCN(CC/C=C2/c3ccccc3Sc3ccc(S(=O)(=O)N(C)C)cc32)CC1	Bacterial Biotransformation	Compound metabolized
CN(CCOc1ccc(CC2SC(=O)NC2=O)cc1)c1ccccn1.O=C(O)/C=C\C(=O)O (stereo not drawn) [ROSIGLITAZONE MALEATE]	Bacterial Biotransformation	Compound NOT metabolized
CCC1(c2ccc(N)cc2)CCC(=O)NC1=O (stereo not drawn) [AMINOGLUTETHIMIDE]	Bacterial Biotransformation	Compound NOT metabolized
COC(=O)[C@H](c1ccccc1Cl)N1CCc2sccc2C1.O=S(=O)(O)O [CLOPIDOGREL BISULFATE]	Bacterial Biotransformation	Compound NOT metabolized
COc1cc(NC(C)CCCN)c2ncccc2c1.O=P(O)(O)O.O=P(O)(O)O (stereo not drawn) [PRIMAQUINE PHOSPHATE]	Bacterial Biotransformation	Compound NOT metabolized
CC(C)c1nc(CN(C)C(=O)N[C@H](C(=O)N[C@@H](Cc2ccccc2)C[C@H](O)[C@H](Cc2ccccc2)NC(=O)OCc2cncs2)C(C)C)cs1	Bacterial Biotransformation	Compound NOT metabolized
CCN(CC)C(=O)C1(c2ccccc2)CC1CN (stereo not drawn)	Bacterial Biotransformation	Compound NOT metabolized
CC(CCc1ccccc1)NCC(O)c1ccc(O)c(C(N)=O)c1 (stereo not drawn)	Bacterial Biotransformation	Compound NOT metabolized
COC1=C(OC)C(=O)C(CCCCCCCCCCO)=C(C)C1=O	Bacterial Biotransformation	Compound NOT metabolized
O=C1NCC2(CCN(CCc3ccccc3)CC2)O1 [FENSPIRIDE]	Bacterial Biotransformation	Compound NOT metabolized
CN1CCN(C2=Nc3cc(Cl)ccc3Nc3ccccc32)CC1	Bacterial Biotransformation	Compound NOT metabolized
O=C1C(CC[S+]([O-])c2ccccc2)C(=O)N(c2ccccc2)N1c1ccccc1 (stereo not drawn)	Bacterial Biotransformation	Compound NOT metabolized
O=C([O-])C[C@H](O)C[C@H](O)/C=C/c1c(C2CC2)nc2ccccc2c1-c1ccc(F)cc1.O=C([O-])C[C@H](O)C[C@H](O)/C=C/c1c(C2CC2)nc2ccccc2c1-c1ccc(F)cc1.[Ca+2]	Bacterial Biotransformation	Compound NOT metabolized
COc1ccc2c(c1OC)C(=O)O[C@@H]2[C@H]1c2c(cc3c(c2OC)OCO3)CCN1C	Bacterial Biotransformation	Compound metabolized

###

assay_name: The drug is tested on Bacteroides ovatus strain: ATCC8483 for biotransformation. The drug concentrations were measured before and after a 12-h incubation by liquid-chromatography-coupled mass spectrometry (LC–MS)
test_context: 2 µM
value_type: Bacterial Biotransformation

molecule	test_result
C=CCc1ccccc1OCC(O)CNC(C)C (stereo unspecified)	Compound NOT metabolized
CC(=O)OCC(=O)NCCCOc1cccc(CN2CCCCC2)c1 [ROXATIDINE ACETATE]	Compound metabolized
CC(CN(C)C)CN1c2ccccc2CCc2ccccc21.O=C(O)/C=C\C(=O)O (stereo unspecified) [TRIMIPRAMINE MALEATE]	Compound NOT metabolized
Nc1nc2ccc(OC(F)(F)F)cc2s1	Compound NOT metabolized
CC1=C(CC(=O)O)c2cc(F)ccc2/C1=C\c1ccc([S+](C)[O-])cc1 (stereo unspecified)	Compound NOT metabolized
CCCc1nn(C)c2c(=O)[nH]c(-c3cc(S(=O)(=O)N4CCN(C)CC4)ccc3OCC)nc12.O=C(O)CC(O)(CC(=O)O)C(=O)O [SILDENAFIL CITRATE]	Compound metabolized
COc1ccc2c3c1O[C@H]1C[C@@H](O)C=C[C@@]31CCN(C)C2	Compound metabolized
CC[C@@]1(O)C(=O)OCc2c1cc1n(c2=O)Cc2cc3c(CN(C)C)c(O)ccc3nc2-1	Compound NOT metabolized
CC(C)N(CCC(C(N)=O)(c1ccccc1)c1ccccn1)C(C)C.O=P(O)(O)O (stereo unspecified) [DISOPYRAMIDE PHOSPHATE]	Compound NOT metabolized
CC(C)(C(=O)O)c1ccc(C(O)CCCN2CCC(C(O)(c3ccccc3)c3ccccc3)CC2)cc1 (stereo unspecified) [FEXOFENADINE]	Compound NOT metabolized
CN1CCC(=C2c3ccccc3CC(=O)c3sccc32)CC1.O=C(O)/C=C/C(=O)O [KETOTIFEN FUMARATE]	Compound NOT metabolized
C=CC[C@@H]1/C=C(\C)C[C@H](C)C[C@H](OC)[C@H]2O[C@@](O)(C(=O)C(=O)N3CCCC[C@H]3C(=O)O[C@H](/C(C)=C/[C@@H]3CC[C@@H](O)[C@H](OC)C3)[C@H](C)[C@@H](O)CC1=O)[C@H](C)C[C@@H]2OC.O	Compound NOT metabolized
CN(C)CCOC(c1ccc(Cl)cc1)c1ccccn1.O=C(O)/C=C\C(=O)O (stereo unspecified) [CARBINOXAMINE MALEATE]	Compound NOT metabolized
CC(C)[C@H]1CC[C@H](C(=O)N[C@H](Cc2ccccc2)C(=O)O)CC1 [NATEGLINIDE]	Compound NOT metabolized
CC(C)NCC(O)COc1ccc(CCOCC2CC2)cc1 (stereo unspecified)	Compound NOT metabolized
CCN(CC)CCOC(=O)C1(C2CCCCC2)CCCCC1	Compound NOT metabolized

###

assay_name: The drug is tested on Clostridium sporogenes strain: ATCC15579 for biotransformation. The drug concentrations were measured before and after a 12-h incubation by liquid-chromatography-coupled mass spectrometry (LC–MS)
test_context: 2 µM

molecule	Bacterial Biotransformation
Nc1ccc(/N=N/c2ccccc2)c(N)n1	Compound metabolized
COc1cc2nc(N3CCN(C(=O)C4CCCO4)CC3)nc(N)c2cc1OC (centres undefined)	Compound NOT metabolized
CCCN1C[C@H](CSC)C[C@@H]2c3cccc4[nH]cc(c34)C[C@H]21.CS(=O)(=O)O [PERGOLIDE MESYLATE]	Compound NOT metabolized
CCCCc1nc(Cl)c(CO)n1Cc1ccc(-c2ccccc2-c2nn[nH]n2)cc1	Compound NOT metabolized
CS(=O)(=O)O.OC(CCN1CCCCC1)(c1ccccc1)c1ccccc1 [PRIDINOL METHANESULFONATE]	Compound NOT metabolized
CC12CC3CC(C)(C1)CC(N)(C3)C2 [MEMANTINE]	Compound NOT metabolized
COc1ccc2[nH]c([S+]([O-])Cc3ncc(C)c(OC)c3C)nc2c1 (centres undefined)	Compound metabolized
CC(C)(Oc1ccc(CCNC(=O)c2ccc(Cl)cc2)cc1)C(=O)O [BEZAFIBRATE]	Compound metabolized
CN[C@H]1CC[C@@H](c2ccc(Cl)c(Cl)c2)c2ccccc21	Compound NOT metabolized
CC(C)(C#N)c1cc(Cn2cncn2)cc(C(C)(C)C#N)c1	Compound metabolized
CCCN(CCC)CCc1cccc2c1CC(=O)N2	Compound NOT metabolized
O=c1[nH]c2ccccc2n1C1CCN(CCCC(c2ccc(F)cc2)c2ccc(F)cc2)CC1 [PIMOZIDE]	Compound NOT metabolized
O=P1(N(CCCl)CCCl)NCCCO1 (centres undefined) [CYCLOPHOSPHAMIDE ANHYDROUS]	Compound NOT metabolized
CC(O)(CS(=O)(=O)c1ccc(F)cc1)C(=O)Nc1ccc(C#N)c(C(F)(F)F)c1 (centres undefined) [BICALUTAMIDE]	Compound NOT metabolized
CC(CCc1ccccc1)NCC(O)c1ccc(O)c(C(N)=O)c1 (centres undefined)	Compound NOT metabolized
CCN(CC)C(C)CN1c2ccccc2Sc2ccccc21 (centres undefined)	Compound NOT metabolized
CC(N)C12CC3CC(CC(C3)C1)C2 (centres undefined)	Compound NOT metabolized
Clc1ccc(Cn2c(CN3CCCC3)nc3ccccc32)cc1	Compound NOT metabolized
O=C1CC2(CCCC2)CC(=O)N1CCCCN1CCN(c2ncccn2)CC1	Compound NOT metabolized
